Would you kindly list pKi for each of these compounds?
- tested on: HIV protease (Human immunodeficiency virus type 1 group M subtype B)
- measurement description: Enzymatic (FRET fluorometric) assay for determining the inhibition constant (Ki) of compounds targeting the HIV protease
- Format: biochemical
- settings: FRET substrate (EDANS/DABCYL), equation of Henderson; read-out: Ki
- From the text: Enzymatic Assay for Determining the Inhibition Constant (Ki) of Synthetic Compounds Targeting the HIV Protease This is a fluorometric assay based on the cleavage by protease of a substrate carrying a donor group (EDANS) and an acceptor group (DABCYL) on each side of the cleavage site, interacting together through fluorescence resonance energy transfer (FRET) as described by Matayoshi et al. (Science 247:[…], 1990). […] Graphs are traced and the Ki determined using GraphPad Prism software v. […]
Lab note: report pKi as minus log10 of the concentration in molar units, number only.

Incoming: // returns reported pKi for input Cc1ccc(S(=O)(=O)N(CC(C)C)[C@@H](CCCCNC(=NC#N)NCc2ccccc2)C(=O)O)cc1 [Example 28]
Outgoing: 7.20

Incoming: For COc1ccc(CN(Cc2ccncc2)C(=O)NCCCC[C@@H](C(=O)O)N(CC(C)C)S(=O)(=O)c2ccc(N)cc2)cc1 [Example 49] , what is its reported pKi?
Outgoing: 7.92

Incoming: Query: pKi; subject: Cc1ccc(S(=O)(=O)N(CC(C)C)[C@@H](CCCCNC(=S)NCc2ccccc2)C(=O)O)cc1 [Example 16]
Outgoing: 6.82

Incoming: Returns the measured pKi for the input compound. Input: COc1ccc(CN(Cc2ccncc2)C(=O)NCCCC[C@@H](C(=O)O)N(CC(C)C)S(=O)(=O)c2ccc(C)cc2)cc1 [Example 43]
Outgoing: 8.10

Incoming: Endpoint output: pKi of Cc1ccc(S(=O)(=O)N(CC(C)C)[C@H](CO)CCCCNC(=O)N(Cc2ccccc2)Cc2ccccc2)cc1 [Example 33] . Value?
Outgoing: 7.77

Incoming: Looking for the measured pKi of Cc1ccc(S(=O)(=O)N(CC(C)C)[C@H](CO)CCCCNC(=S)N(Cc2ccccc2)Cc2ccccc2)cc1 [Example 34] , can you help?
Outgoing: 7.11

Incoming: Entry Cc1ccc(S(=O)(=O)N(CC(C)C)[C@@H](CCCCNC(=O)N(Cc2ccccc2)Cc2ccccc2)C(=O)O)cc1 [Example 32] has what pKi?
Outgoing: 8.14
